pEC50 by entry:
Target: G protein-activated inward rectifier potassium channel 2 (Homo sapiens) + G protein-activated inward rectifier potassium channel 1 (Homo sapiens) (UniProt P48051+P48549)
Sequence (P48051 whole entry, looked up): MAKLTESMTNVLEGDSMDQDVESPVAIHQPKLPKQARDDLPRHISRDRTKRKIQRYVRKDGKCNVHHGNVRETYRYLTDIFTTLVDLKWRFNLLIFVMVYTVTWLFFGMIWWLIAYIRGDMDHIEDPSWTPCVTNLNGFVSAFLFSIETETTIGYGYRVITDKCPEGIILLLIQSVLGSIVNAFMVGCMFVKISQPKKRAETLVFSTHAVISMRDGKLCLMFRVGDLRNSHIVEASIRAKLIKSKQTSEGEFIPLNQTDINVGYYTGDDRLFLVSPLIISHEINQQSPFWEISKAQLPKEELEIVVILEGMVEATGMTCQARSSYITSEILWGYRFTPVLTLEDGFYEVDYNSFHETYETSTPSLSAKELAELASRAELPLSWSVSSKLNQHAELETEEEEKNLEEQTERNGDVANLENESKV
Sequence (P48549 whole entry, looked up): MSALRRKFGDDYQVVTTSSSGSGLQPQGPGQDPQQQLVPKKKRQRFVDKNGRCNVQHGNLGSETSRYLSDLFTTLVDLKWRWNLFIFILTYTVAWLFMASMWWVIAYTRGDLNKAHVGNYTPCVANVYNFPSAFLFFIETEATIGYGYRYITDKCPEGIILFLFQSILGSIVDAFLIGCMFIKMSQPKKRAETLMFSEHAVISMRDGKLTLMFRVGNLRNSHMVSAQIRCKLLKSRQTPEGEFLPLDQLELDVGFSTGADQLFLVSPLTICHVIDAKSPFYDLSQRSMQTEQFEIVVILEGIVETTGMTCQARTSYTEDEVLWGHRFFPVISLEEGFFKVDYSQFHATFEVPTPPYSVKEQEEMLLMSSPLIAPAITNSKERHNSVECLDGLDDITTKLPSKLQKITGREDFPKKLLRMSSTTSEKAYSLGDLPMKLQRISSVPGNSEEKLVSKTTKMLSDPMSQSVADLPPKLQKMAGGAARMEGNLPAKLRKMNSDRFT
Experiment: activation of human GIRK potassium channels – cell-based, thallium flux, HEK-293, GIRK1/2, dose response (AID 623909)
Settings: HEK-293 hGIRK1/2, thallium flux FluoZin-2 fluorescence
pEC50: −log10 of the molar value.
measurement.label: pEC50

[[record]]
smiles_record = "COc1ccc(C)cc1NC(=O)NCCC1=CCCCC1"
measurement_label = "pEC50"
data_value = 5.40

[[record]]
smiles_record = "NC(=O)SCC(=O)Nc1ccc(Cl)cc1"
measurement_label = "pEC50"
data_value = 5.38

[[record]]
smiles_record = "Cc1cc(NC(=O)Nc2ccccc2)n(-c2ccccc2)n1"
measurement_label = "pEC50"
data_value = 5.43

[[record]]
smiles_record = "Cc1ccc(NC(=O)CN2c3cccc4cccc(c34)S2(=O)=O)cc1S(=O)(=O)N1CCOCC1"
measurement_label = "pEC50"
data_value = 5.65

